Numbers sourced from paper PMC6413952.

Assay: Rat oral pharmacokinetic study (plasma AUC, C8hr)
Assay type: in vivo, Sprague-Dawley rats
Details: PO rats; C(8hr)/dose
READOUT KIND: C*8hr (ng/mL per mg/kg)
Hi! Could you send only the number? It should be in ng/mL per mg/kg, unit omitted.

[
  {
    "MOLECULE": "CC[C@H]1OC(=O)C[C@@H](O)[C@H](C)[C@@H](O[C@@H]2O[C@H](C)[C@@H](O[C@H]3C[C@@](C)(O)[C@@H](O)[C@H](C)O3)[C@H](N(C)C)[C@H]2O)[C@@H](CC=O)C[C@@H](C)C(=O)/C=C/C(C)=C/[C@@H]1CO[C@@H]1O[C@H](C)[C@@H](O)[C@@H](OC)[C@H]1OC [1 (TylA), Tylosin A]",
    "NUMBER": 0.5
  },
  {
    "MOLECULE": "CCC1OC(=O)CC(O)C(C)C(OC2OC(C)C(OC3CC(C)(O)C(OC(=O)N(CC)CC)C(C)O3)C(N(C)C)C2OC(=O)C(C)C)C(CC=O)CC(C)C(=O)C=CC(C)=CC1COC1OC(C)C(O)C(OC)C1OC (stereo not drawn) [Compound 4d]",
    "NUMBER": 30
  }
]

Kindly review the next molecule as well.
query: Name the reported C*8hr value associated with the molecule CC[C@H]1OC(=O)C[C@@H](O)[C@H](C)[C@@H](O[C@@H]2O[C@H](C)[C@@H](O[C@H]3C[C@@](C)(O)[C@@H](OCc4ccc(F)cc4)[C@H](C)O3)[C@H](N(C)C)[C@H]2O)[C@@H](CC=O)C[C@@H](C)C(=O)/C=C/C(C)=C/[C@@H]1CO[C@@H]1O[C@H](C)[C@@H](O)[C@@H](OC)[C@H]1OC [Compound 5d]
result: 0.75

###

Test: Rat oral pharmacokinetic study (plasma AUC, C8hr)
Format: in vivo, Sprague-Dawley rats
Conditions: oral dosing, rats
READOUT KIND: improvement in plasma drug levels (AUC) over TylA (fold)
Hi! Could you send only the number? It should be in fold, unit omitted.

A selection of reference data follows.
[
  {
    "MOLECULE": "CC[C@H]1OC(=O)C[C@@H](O)[C@H](C)[C@@H](O[C@@H]2O[C@H](C)[C@@H](O[C@H]3C[C@@](C)(O)[C@@H](OCc4ccc(F)cc4)[C@H](C)O3)[C@H](N(C)C)[C@H]2O)[C@@H](CC=O)C[C@@H](C)C(=O)/C=C/C(C)=C/[C@@H]1CO[C@@H]1O[C@H](C)[C@@H](O)[C@@H](OC)[C@H]1OC",
    "NUMBER": 1.7
  },
  {
    "MOLECULE": "CCCCC(=O)OC1C(OC2C(CC=O)CC(C)C(=O)C=CC(C)=CC(COC3OC(C)C(O)C(OC)C3OC)C(CC)OC(=O)CC(O)C2C)OC(C)C(OC2CC(C)(O)C(O)C(C)O2)C1N(C)C (centres unmarked)",
    "NUMBER": 6
  }
]

Kindly review the next molecule as well.
query: Name the reported improvement in plasma drug levels (AUC) over TylA value associated with the molecule CCC1OC(=O)CC(O)C(C)C(OC2OC(C)C(OC3CC(C)(O)C(OC(=O)C(C)(C)C)C(C)O3)C(N(C)C)C2O)C(CC=O)CC(C)C(=O)C=CC(C)=CC1COC1OC(C)C(O)C(OC)C1OC (centres unmarked)
result: 6
